# Test Target: F508delCFTR (Homo sapiens, UniProt P13569, DEL508-508)
# Construct: expressed in transfected cells; host or cells: CFBE41o- human lung-derived epithelial cells (CFBE4lo-F508delCFTR-HRP), doxycycline-inducible
# Sequence (P13569 with tags, fused parts or gaps DEL508-508): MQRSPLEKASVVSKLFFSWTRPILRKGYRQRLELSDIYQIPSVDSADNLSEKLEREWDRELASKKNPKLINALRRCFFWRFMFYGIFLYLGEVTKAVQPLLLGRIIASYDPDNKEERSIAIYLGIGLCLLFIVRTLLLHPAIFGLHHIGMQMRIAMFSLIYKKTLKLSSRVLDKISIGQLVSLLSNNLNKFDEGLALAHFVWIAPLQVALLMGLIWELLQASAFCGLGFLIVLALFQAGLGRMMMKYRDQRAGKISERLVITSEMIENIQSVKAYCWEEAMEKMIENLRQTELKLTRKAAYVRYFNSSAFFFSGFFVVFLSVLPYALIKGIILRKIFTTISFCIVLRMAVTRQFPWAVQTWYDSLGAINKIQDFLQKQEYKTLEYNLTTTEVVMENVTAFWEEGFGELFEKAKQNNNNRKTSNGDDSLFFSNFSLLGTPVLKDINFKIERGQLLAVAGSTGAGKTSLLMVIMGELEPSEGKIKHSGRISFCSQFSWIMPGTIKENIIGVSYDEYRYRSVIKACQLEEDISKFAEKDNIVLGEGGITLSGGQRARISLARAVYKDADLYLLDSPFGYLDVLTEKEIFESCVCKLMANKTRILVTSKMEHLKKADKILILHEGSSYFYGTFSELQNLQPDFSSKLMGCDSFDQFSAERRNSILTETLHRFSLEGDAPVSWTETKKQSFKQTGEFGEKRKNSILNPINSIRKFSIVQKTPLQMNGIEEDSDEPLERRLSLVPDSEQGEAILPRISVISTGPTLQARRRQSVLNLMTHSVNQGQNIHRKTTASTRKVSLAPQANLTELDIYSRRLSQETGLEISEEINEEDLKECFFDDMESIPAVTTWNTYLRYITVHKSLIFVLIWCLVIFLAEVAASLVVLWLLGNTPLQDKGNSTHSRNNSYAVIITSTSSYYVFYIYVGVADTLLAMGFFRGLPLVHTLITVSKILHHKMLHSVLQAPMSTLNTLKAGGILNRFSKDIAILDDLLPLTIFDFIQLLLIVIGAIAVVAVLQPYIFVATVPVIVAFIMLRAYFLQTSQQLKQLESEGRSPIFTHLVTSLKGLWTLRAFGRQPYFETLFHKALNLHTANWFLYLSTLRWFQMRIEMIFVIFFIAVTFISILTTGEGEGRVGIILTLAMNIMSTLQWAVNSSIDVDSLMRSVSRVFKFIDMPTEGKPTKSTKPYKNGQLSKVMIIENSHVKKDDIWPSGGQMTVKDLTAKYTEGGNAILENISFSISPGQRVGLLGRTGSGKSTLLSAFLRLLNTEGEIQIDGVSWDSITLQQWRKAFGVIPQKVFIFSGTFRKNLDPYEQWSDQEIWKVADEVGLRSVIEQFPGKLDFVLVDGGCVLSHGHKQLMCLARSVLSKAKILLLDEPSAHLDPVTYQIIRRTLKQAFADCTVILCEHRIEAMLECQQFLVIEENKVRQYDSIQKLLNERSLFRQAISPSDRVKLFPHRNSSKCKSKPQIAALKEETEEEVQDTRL
# Assay Procedure: Cell Surface Expression-Horse Radish Peroxidase (CSE-HRP) Assay
# Type: cell-based
# Test Context: CSE-HRP; with co-corrector (2 μM of 3-[(2R,4R)-4-({[1-(2,2-difluoro-1,3-benzodioxol-5-yl)cyclopropyl]carbonyl}amino)-7-methoxy-3,4-dihydro-2H-chromen-2-yl]benzoic acid); read-out: EC50 (with co-corrector)
EC50 values for the molecules below.

1) COc1ncc(C2CCC2)cc1CN[C@H]1[C@H](C(C)(C)C)[C@@H](C(=O)O)N(C(=O)[C@@H]2CCCO2)[C@H]1c1ccccc1C(F)(F)F [Example I-286] : < 1000 nM
2) COc1ccc(C(C)(C)C)cc1CN[C@H]1[C@H](C(C)(C)C)[C@@H](C(=O)O)N(C(=O)Cc2c(F)cccc2F)[C@H]1c1ccccc1 [II-201] : < 1000 nM
3) COc1ccc(C2CCCC2)cc1CN[C@H]1[C@H](C(C)(C)OC)[C@@H](C(=O)O)N(C(=O)C2CCCCC2)[C@H]1c1ccccc1 [II-256] : < 1000 nM
4) CC(C)(C)[C@H]1[C@H](NCc2cc(F)cc(F)c2)[C@H](c2ccccc2)N(C(=O)C2CCCCC2)[C@@H]1C(=O)O [II-115] : 1000 to 10000 nM

Determine from records and report EC50 for COc1ccc(C(C)(C)C)cc1CN[C@H]1[C@H](C(C)(C)C)[C@@H](C(=O)O)N(C(=O)[C@@H]2CCCO2)[C@H]1c1ccccc1C [Example I-261] 1000 to 10000 nM

----------
EC50 values for the compounds below.
# Test Target: F508delCFTR (Homo sapiens, UniProt P13569, DEL508-508)
# Construct: expressed in transfected cells; host or cells: CFBE41o- human lung-derived epithelial cells (CFBE4lo-F508delCFTR-HRP), doxycycline-inducible
# Assay Procedure: Cell Surface Expression-Horse Radish Peroxidase (CSE-HRP) Assay
# Format: cell-based
# Test Context: with co-corrector (2 μM of 3-[(2R,4R)-4-({[1-(2,2-difluoro-1,3-benzodioxol-5-yl)cyclopropyl]carbonyl}amino)-7-methoxy-3,4-dihydro-2H-chromen-2-yl]benzoic acid); read-out: EC50 (with co-corrector)

1. COc1ccc(C(C)(C)C)cc1CN[C@H]1[C@H](C(C)(C)C)[C@@H](C(=O)O)N(C(=O)C2CCCCC2)[C@H]1c1cccnc1N(C)C [Example I-52] : < 1000 nM
2. COc1nc(C(C)(C)C)ccc1CN[C@H]1[C@H](C(C)(C)C)[C@@H](C(=O)O)N(C(=O)C2CCCCC2)[C@H]1c1ccccc1OC(F)F [II-528] : 1000 to 10000 nM
3. COc1ccc(C2(C(F)(F)F)CC2)cc1CN[C@H]1[C@H](C(C)(C)C)[C@@H](C(=O)O)N(C(=O)C2CCCCC2)[C@H]1c1ccccc1 [Example 33] : < 1000 nM
4. COc1ccc(OC(F)F)c(CN[C@@H]2[C@@H](C(C)(C)C)[C@H](C(=O)O)N(C(=O)C3CCCCC3)[C@@H]2c2ccccc2)c1 (racemic) [Example I-14] : 1000 to 10000 nM
5. COc1nc(C(C)(C)C)ccc1CN[C@H]1[C@H](C(C)(C)C)[C@@H](C(=O)O)N(C(=O)OC(C)C)[C@H]1c1ccccc1F [II-519] : < 1000 nM
6. CCC(C)(C)c1ccc(OC)c(CN[C@H]2[C@H](C(C)(C)C)[C@@H](C(=O)O)N(C(=O)OC(C)C)[C@H]2c2cccnc2N(C)C)c1 [III-232] : 1000 to 10000 nM

Determine from records and report EC50 for COc1cccc([C@@H]2[C@H](Nc3cc(C(F)(F)F)cc(C)n3)[C@@H](C(C)(C)C)[C@H](C(=O)O)N2C(=O)C2C3COCC32)n1 (mixture of isomers) [III-62] 1000 to 10000 nM

Determine from records and report EC50 for COc1ccc2c(C)cc(N[C@H]3[C@H](C(C)(C)C)[C@@H](C(=O)O)N(C(=O)C4CCCCC4)[C@H]3c3ccccc3)nc2c1 [III-151] 1000 to 10000 nM

Determine from records and report EC50 for CC(C)(C)[C@@H]1[C@@H](Nc2cc(C(F)(F)F)ccn2)[C@@H](c2ccccc2)N(C(=O)C2CCCCC2)[C@H]1C(=O)O (racemic) [III-4] 1000 to 10000 nM

Determine from records and report EC50 for COc1ncc(C(F)(F)F)cc1N[C@H]1[C@H](C(C)(C)C)[C@@H](C(=O)O)N(C(=O)C2CCCCC2)[C@H]1c1cccnc1N(C)C [II-461] 1000 to 10000 nM

----------
# Test Target: F508delCFTR (Homo sapiens, UniProt P13569, DEL508-508)
# Construct: expressed in transfected cells; host or cells: CFBE41o- human lung-derived epithelial cells (CFBE4lo-F508delCFTR-HRP), doxycycline-inducible
# Assay Procedure: Cell Surface Expression-Horse Radish Peroxidase (CSE-HRP) Assay;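 for Maximum % activity (with co-corrector): co-corrector and positive control are both the same reference corrector at 2 µM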
# Type: cell-based
# Test Context: CSE-HRP; with co-corrector (2 μM); maximum at any tested concentration, normalized to on-plate positive control
Measured Attribute: Maximum % activity (with co-corrector)

1. COc1ccc(C(C)(C)C)cc1CN[C@@H]1[C@@H](C(C)(C)C)[C@H](C(=O)O)N(C(=O)OC2CCC2)[C@@H]1c1ccccc1 (racemic) : +++ (≥350)
2. COc1ccc(C(C)(C)C)cc1CN[C@H]1[C@H](C(C)(C)C)[C@@H](C(=O)O)N(C(=O)C[C@H]2OCCc3ccccc32)[C@H]1c1ccccc1 : +++ (≥350)
3. COc1ccc(C(C)(C)C)cc1CN[C@H]1[C@H](C(C)(C)C)[C@@H](C(=O)O)N(C(=O)c2cc(-c3ccccc3)n(C)n2)[C@H]1c1ccccc1 : +++ (≥350)

----------
# Test Target: F508delCFTR (Homo sapiens, UniProt P13569, DEL508-508)
# Construct: expressed in transfected cells; host or cells: CFBE41o- human lung-derived epithelial cells (CFBE4lo-F508delCFTR-HRP), doxycycline-inducible
# Assay Procedure: Cell Surface Expression-Horse Radish Peroxidase (CSE-HRP) Assay;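 for Maximum % activity (without co-corrector): percent of the 2 µM on-plate positive control corrector response above DMSO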
# Assay type: cell-based
# Test Context: CSE-HRP; without co-corrector; maximum at any tested concentration, normalized to on-plate positive control; read-out: Maximum % activity (without co-corrector)
# Experimental: Cell Surface Expression-Horse Radish Peroxidase (CSE-HRP) Assay The development was achieved by expressing the F508delCFTR mutation along with a horseradish peroxidase (HRP) in the fourth exofacial loop, and then measuring the HRP activity using luminescence readout from these cells, CFBE4lo-F508delCFTR-HRP, that were incubated overnight with the test corrector compounds, either without or with the co-corrector. […] The raw counts from the experiment were analyzed using Accelrys® Assay Explorer v3.3. […]
Measured Attribute: Emax

# annotated cases, reported Emax shown
1) COc1ncc(C2CCC2)cc1CN[C@H]1[C@H](C(C)(C)C)[C@@H](C(=O)O)N(C(=O)[C@H]2CCCCO2)[C@H]1c1ccccc1C : > 200%
2) COc1ncc(C(F)(F)F)cc1CN[C@H]1[C@H](C(C)(C)C)[C@@H](C(=O)O)N(C(=O)C23CC(C2)C3)[C@H]1c1ccccc1C(C)C : 100 to 200%
3) COc1ncc(C2CC3CCC2C3)cc1CN[C@H]1[C@H](C(C)(C)OC)[C@@H](C(=O)O)N(C(=O)C2CCCCC2)[C@H]1c1ccccc1 (some centres unmarked) : 100 to 200%
4) COc1ccc(Br)c(CN[C@H]2[C@H](C(C)(C)C)[C@@H](C(=O)O)N(C(=O)C3CCCCC3)[C@H]2c2ccccc2)c1 : < 100%

Determine from records and report Emax for CC(C)(C)[C@H]1[C@H](NC2CCOc3ccc(Cl)cc32)[C@H](c2ccccc2)N(C(=O)C2CCCCC2)[C@@H]1C(=O)O (some centres unmarked) < 100%

Determine from records and report Emax for CC(C)COc1ccccc1CN[C@@H]1[C@@H](C(C)(C)C)[C@H](C(=O)O)N(C(=O)C2CCCCC2)[C@@H]1c1ccccc1 (racemic) < 100%

Determine from records and report Emax for COc1ccc(C(C)(C)C)cc1CN[C@@H]1[C@@H](C(C)(C)C)[C@H](C(=O)O)N(C(=O)OC2CCC2)[C@@H]1c1ccccc1 (racemic) > 200%

Determine from records and report Emax for `COc1ccc(C(C)(C)C)cc1CN[C@H]1[C@H](C(C)(C)C)[C@@H](C(=O)O)N(C(=O)[C@H](C)c2ccccc2)[C@H]1c1ccccc1` > 200%

Determine from records and report Emax for COc1cc(C(F)(F)F)ccc1CN[C@H]1[C@H](C(C)(C)C)[C@@H](C(=O)O)N(C(=O)C2CCCCO2)[C@H]1c1cccnc1OC (relative stereo) 100 to 200%

Each recorded value in this set is attributed to patent US20180099931A1.
